// provenance: paper PMC9250534

Reported fraction of fluorescent probe displaced values follow for various compounds
- ASSAY TARGET: MDM2 (Homo sapiens, UniProt Q00987)
- Sequence (Q00987 whole entry): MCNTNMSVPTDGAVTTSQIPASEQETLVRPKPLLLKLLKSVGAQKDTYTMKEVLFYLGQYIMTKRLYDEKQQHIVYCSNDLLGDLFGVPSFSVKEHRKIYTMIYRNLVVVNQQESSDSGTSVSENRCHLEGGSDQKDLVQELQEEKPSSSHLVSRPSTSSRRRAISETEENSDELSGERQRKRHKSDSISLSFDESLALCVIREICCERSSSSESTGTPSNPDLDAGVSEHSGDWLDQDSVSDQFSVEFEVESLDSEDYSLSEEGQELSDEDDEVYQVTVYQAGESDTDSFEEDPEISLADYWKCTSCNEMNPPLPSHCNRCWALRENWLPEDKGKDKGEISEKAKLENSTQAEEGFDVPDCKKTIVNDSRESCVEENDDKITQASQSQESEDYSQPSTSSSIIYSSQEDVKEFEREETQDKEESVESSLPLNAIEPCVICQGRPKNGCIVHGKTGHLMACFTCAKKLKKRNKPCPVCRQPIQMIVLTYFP
- EXPERIMENTAL PROTOCOL: MDM2 binding screen of Libraries 3 and 4: displacement of fluorescent probe F-M8 at 750 nM macrocycle
- SETTINGS: Panel b, Library 3: 63 scaffolds combinatorially acylated with 15 carboxylic acids at 30 picomole scale; displacement of fluorescent peptide probe; macrocycle 750 nM
- Description: The cyclic peptide scaffolds required for Libraries 3 and 4 were synthesized as described for those used in Library 2. Due to the presence of many N-methylated amino acids which are more difficult to couple, 200 mM HOAt was applied together with HATU. The scaffolds were diluted to 2 mM in DMSO, and 15 nL were transferred using acoustic dispensing, followed by 15 nL DMSO containing carboxylic acids (40 mM, 20 equiv.), HBTU (40 mM) and DABCO (40 mM). […]
API doc: respond with a numeric literal and nothing else, no unit.

O=C(NC[C@@H]1NC(=O)[C@@H]2CN(CCO2)C(=O)CCSSCCNC(=O)[C@H](Cc2c[nH]c3ccccc23)NC1=O)c1ccc2ccccc2c1 [X-Cop-Dap-Trp + Acid 107] ... 0.108

### Prompt Output measured fraction of fluorescent probe displaced for this item: Cn1cc(C[C@@H]2NC(=O)[C@H](CNC(=O)/C=C/c3ccc(Cl)cc3)NC(=O)[C@H]3CCCN(C3)C(=O)CCSSCCNC2=O)c2ccccc21 [X-Nip-Dap-Me-Trp + Acid 108]
### Response 0.075

### Prompt Output measured fraction of fluorescent probe displaced for this item: O=C(/C=C/c1ccc(Cl)cc1)NC[C@H]1NC(=O)[C@H]2CCCN(C2)C(=O)CCSSCCNC(=O)[C@H](Cc2c[nH]c3cc(Cl)ccc23)NC1=O [X-Nip-D-Dap-Cl-Trp + Acid 108]
### Response 0.00133

### Prompt Output measured fraction of fluorescent probe displaced for this item: O=C1CCSSCCNC(=O)[C@H](Cc2c[nH]c3cc(Cl)ccc23)NC(=O)[C@@H](CNC(=O)c2ccc(Cl)cc2)NC(=O)C2(CC2)CN1 [X-Amcp-D-Dap-Cl-Trp + Acid 25]
### Response 0.021

###

- ASSAY TARGET: MDM2 (Homo sapiens)
- EXPERIMENTAL PROTOCOL: MDM2 binding screen: displacement of fluorescent p53 peptide probe FP53 (fluorescence polarization)
- SETTINGS: Acid 14; initial screen; crude macrocycle reactions
Numbered stars: 1 amine (or outer) side, 2 acyl side, 3 side chain; on linkers, the order of the positions; unused ones are H or OH. Bridge positions count the residues as written; N and C are the ends. Square brackets hold non-standard residues; d marks the D form. Peptide text beside a SMILES is read from it. * marks the point of attachment. ξ: configuration not given here. ξPro(4-NHCO(5-Cl-2-thienyl)) = O=C(NC1CNC(C(=O)O)C1)c1ccc(Cl)s1; 2Thenoyl(5-Cl) = O=C(c1ccc(Cl)s1)*; Cysteamide = C(CS[*:3])N[*:1]; Api = NC1(C(=O)O)CCNCC1; Dap = NC[C@H](N)C(=O)O; Mpa = O=C(O)CCS
Reported fraction fluorescent probe displaced, Screen values follow for various compounds
API doc: respond with a numeric literal and nothing else, no unit.

Some compounds with known fraction fluorescent probe displaced, Screen results, for comparison:
O=C(NC1CC2C(=O)N3CCCC(C3)C(=O)NC(Cc3ccccc3)C(=O)NCCSSCCC(=O)N2C1)c1ccc(Cl)s1 (stereo not drawn) ... -0.06
O=C1CCSSCCNC(=O)C2CCCN(C2)C(=O)C2(CCN(C(=O)c3ccc(Cl)s3)CC2)NC(=O)C(Cc2c[nH]c3ccccc23)N1 (stereo not drawn) ... 0.11
O=C(N[C@H]1C[C@H]2C(=O)NCCSSCCC(=O)N3CCC[C@@H](C3)C(=O)N[C@@H](Cc3c[nH]c4ccccc34)C(=O)N2C1)c1ccc(Cl)s1 ... 0.08
O=C(NC1CC2C(=O)N3CCCC(C3)C(=O)NC(Cc3c[nH]c4ccccc34)C(=O)NCCSSCCC(=O)N2C1)c1ccc(Cl)s1 (stereo not drawn) ... 0.11
O=C1CCSSCCNC(=O)[C@@H]2CCCN2C(=O)[C@H](Cc2c[nH]c3ccccc23)NC(=O)C2(CCN(C(=O)c3ccc(Cl)s3)CC2)N1 [X D6 W B1 Acid 14] ([Mpa][Api](2Thenoyl(5-Cl))WP-Cysteamide; disulfide 1-C) ... 0.11

### Prompt Output measured fraction fluorescent probe displaced, Screen for this item: O=C1CCSSCCNC(=O)c2cccc(c2)CNC(=O)[C@H](CNC(=O)c2ccc(Cl)s2)NC(=O)[C@H](Cc2c[nH]c3ccccc23)N1
### Response 0.31

### Prompt Output measured fraction fluorescent probe displaced, Screen for this item: O=C1CCNC(=O)C2(CCN(C(=O)c3ccc(Cl)s3)CC2)NC(=O)[C@H](Cc2ccccc2)NC(=O)CCSSCCN1
### Response -0.00483

### Prompt Output measured fraction fluorescent probe displaced, Screen for this item: O=C1CCSSCCNC(=O)C(Cc2c[nH]c3ccccc23)NC(=O)C2CC(NC(=O)c3ccc(Cl)s3)CN2C(=O)CCN1 (stereo not drawn)
### Response 0.11

### Prompt Output measured fraction fluorescent probe displaced, Screen for this item: O=C1CCSSCCNC(=O)C2(CCN(C(=O)c3ccc(Cl)s3)CC2)NC(=O)[C@H]2CCCN(C2)C(=O)[C@H](Cc2c[nH]c3ccccc23)N1
### Response 0.17

### Prompt Output measured fraction fluorescent probe displaced, Screen for this item: O=C1NC(Cc2c[nH]c3ccccc23)C(=O)N2CCN(C(=O)c3ccc(Cl)s3)CC2C(=O)NCCSSCCC(=O)N2CCCC12 (stereo not drawn)
### Response 0.08

### Prompt Output measured fraction fluorescent probe displaced, Screen for this item: O=C(NC[C@@H]1NC(=O)[C@H]2CCCN(C2)C(=O)CCSSCCNC(=O)[C@H](Cc2c[nH]c3ccccc23)NC1=O)c1ccc(Cl)s1
### Response 0.63

### Prompt Output measured fraction fluorescent probe displaced, Screen for this item: O=C1CCSSCCNC(=O)[C@@H]2CCCN2C(=O)[C@H](Cc2c[nH]c3ccccc23)NC(=O)[C@H](CNC(=O)c2ccc(Cl)s2)N1 [X D3 W B1 Acid 14] ([Mpa][Dap](2Thenoyl(5-Cl))WP-Cysteamide; disulfide 1-C)
### Response 0.14

### Prompt Output measured fraction fluorescent probe displaced, Screen for this item: O=C1NC2(CCN(C(=O)c3ccc(Cl)s3)CC2)C(=O)NCCSSCCC(=O)N2CCC[C@H]2C(=O)N[C@H]1Cc1c[nH]c2ccccc12 [X B1 W D6 Acid 14] ([Mpa]PW[Api](2Thenoyl(5-Cl))-Cysteamide; disulfide 1-C)
### Response 0.20

### Prompt Output measured fraction fluorescent probe displaced, Screen for this item: O=C(NC1CC2C(=O)NCCSSCCC(=O)N3CCCC3C(=O)NC(Cc3ccccc3)C(=O)N2C1)c1ccc(Cl)s1 (stereo not drawn) [X B1 F D5 Acid 14] ([Mpa]PF[ξPro(4-NHCO(5-Cl-2-thienyl))]-Cysteamide; disulfide 1-C; configuration not given here)
### Response 0.11

### Prompt Output measured fraction fluorescent probe displaced, Screen for this item: O=C1CCSSCCNC(=O)c2cccc(c2)CNC(=O)C2(CCN(C(=O)c3ccc(Cl)s3)CC2)NC(=O)[C@H](Cc2c[nH]c3ccccc23)N1
### Response 0.14

### Prompt Output measured fraction fluorescent probe displaced, Screen for this item: O=C1NCCSSCCC(=O)N2CC(NC(=O)c3ccc(Cl)s3)CC2C(=O)NC(Cc2c[nH]c3ccccc23)C(=O)NCc2cccc1c2 (stereo not drawn)
### Response 0.08

### Prompt Output measured fraction fluorescent probe displaced, Screen for this item: O=C1CCSSCCNC(=O)[C@H](Cc2ccccc2)NC(=O)[C@@H]2C[C@H](NC(=O)c3ccc(Cl)s3)CN2C(=O)CCN1
### Response 0.16

### Prompt Output measured fraction fluorescent probe displaced, Screen for this item: O=C(NC[C@@H]1NC(=O)[C@H](Cc2ccccc2)NC(=O)[C@H]2CCCN(C2)C(=O)CCSSCCNC1=O)c1ccc(Cl)s1
### Response 0.08
